Ref: patent US20110097274A1

Tested on: SERT
Experiment: Baboon PET imaging: brain uptake, kinetic analysis and SERT parameters
Type: in vivo
Settings: one-tissue compartment model; baboons, mean ± SD of four experiments
Procedure: PET imaging protocol: PET experiments (n=20) were performed at Columbia University. Two adult male baboons (baboon A and B) were studied twice with each of the 5 radioligands (4 experiments per radioligand). […] Experiments were performed according to protocols approved by the Columbia-Presbyterian Medical Center Institutional Animal Care and Use Committee. […] Vital signs were monitored every 10 minutes and the temperature was kept constant at 37° C. with heated water blankets. […]
measuredQuantity: VT Cerebellum (VT CER, nonspecific distribution volume) (mL/g)
Expressed in mL/g, but write only the number.

- molecule: "CN(C)Cc1ccccc1Sc1ccc(C#N)cc1N [[^11C]DASB]"
  unitSpec: "mL/g"
  readoutValue: 17.3

Find the recorded VT Cerebellum (VT CER, nonspecific distribution volume) belonging to CN([11CH3])Cc1ccccc1Sc1ccc(CF)cc1N [[^11C]AFM] and report it.
30.6

Find the recorded VT Cerebellum (VT CER, nonspecific distribution volume) belonging to CN(C)Cc1ccccc1Sc1ccc(I)cc1N [[^11C]ADAM] and report it.
28.5

Find the recorded VT Cerebellum (VT CER, nonspecific distribution volume) belonging to [11CH3]Sc1ccc([C@H]2CN3CCC[C@H]3c3ccccc32)cc1 [[^11C]McN 5652] and report it.
27.7
